system: MV4-11 cells; experiment: MV4-11 cell proliferation assay (CTG cell viability); type: cell-based; conditions: Homo sapiens, 120 hours, read-out: CTG cell viability assay_MV4-11: IC50
pIC50: −log10 of the molar value.
ENDPOINT NAME: pIC50

O=C1CCC(N2Cc3cc(C(=O)N[C@H](c4ccc(F)cc4F)C4CCC4)ccc3C2=O)C(=O)N1 (stereo in doubt)    6.94

(A) O=C1CC[C@H](N2Cc3cc(C(=O)N[C@H](c4ccc(F)cc4)C4CCC4)ccc3C2=O)C(=O)N1 (single isomer, unassigned)
(B) O=C1CCC(N2Cc3cc(C(=O)N[C@H](c4ncccc4-c4ccc(F)cc4)C4CCC4)ccc3C2=O)C(=O)N1 (stereo in doubt)
Between A and B , whose recorded pIC50 is greater? Record your answer as the label of the chosen record.
B
